Test: RP-HPLC retention on IAM.PC.DD2 (immobilized artificial membrane) column, buffer pH 7.4-acetonitrile
Format: physicochemical
Conditions: extrapolated to buffer pH 7.4 as mobile phase, 25 °C
quantity_measured: log kw, IAM

Quick note, log kw, IAM for `Cc1ccc(Cc2nnc3n(c2=O)CCN3c2ccc(C)cc2)cc1` landed at 2.51

The molecule identified as `Cc1ccc(N2CCn3c2nnc(CCc2ccccc2)c3=O)cc1` registered its log kw, IAM at 2.41

Lookup result for `O=c1c(-c2ccccc2)nnc2n1CCN2c1ccc(Cl)cc1` ; measured log kw, IAM: 2.57

###

Assay: RP-HPLC retention on Purosphere RP-18e (ODS) column, buffer pH 7.4-acetonitrile
Assay type: physicochemical
Settings: slope of Soczewiński-Wachtmeister equation, acetonitrile φ 0.3–0.6
quantity_measured: s ODS

Field s ODS (entry `O=c1c(Cc2ccccc2)nnc2n1CCN2c1ccc(Cl)cc1` ) reads 5.05

The recorded s ODS for `O=c1c(Cc2ccccc2)nnc2n1CCN2c1ccccc1` is 5.02

get_value(item= `Cc1ccccc1N1CCn2c1nnc(Cc1ccccc1Cl)c2=O` , readout=s ODS) returns 4.95

Documented s ODS of `Cc1ccc(N2CCn3c2nnc(-c2ccccc2)c3=O)cc1` : 5.06

Looking up `O=c1c(CCc2ccccc2)nnc2n1CCN2c1ccccc1` , I see its s ODS listed as 4.92

Entry under test: `Cc1ccc(N2CCn3c2nnc(Cc2ccccc2Cl)c3=O)cc1` . Its s ODS was 5.11

Data point: `O=c1c(Cc2ccccc2Cl)nnc2n1CCN2c1ccccc1` ; s ODS = 5.10

###

Test: RP-HPLC retention on Cosmosil Cholester column, buffer pH 7.4-acetonitrile
Type: physicochemical
Details: extrapolated to buffer pH 7.4 as mobile phase, 25 °C
quantity_measured: log kw, Cholester

Solved entries (count: 3):
log kw, Cholester reported for this compound `Cc1cccc(N2CCn3c2nnc(-c2ccccc2)c3=O)c1` : 2.77

log kw, Cholester recorded for this compound, `O=c1c(CCc2ccccc2)nnc2n1CCN2c1ccc(Cl)c(Cl)c1` , is 4.12

Looking up `CCOc1ccc(N2CCn3c2nnc(Cc2ccccc2)c3=O)cc1` , I see its log kw, Cholester listed as 2.68

P: CCOc1ccc(N2CCn3c2nnc(Cc2ccc(C)cc2)c3=O)cc1
Q: CCc1nnc2n(c1=O)CCN2c1ccc(Cl)cc1
R: CCOC(=O)Cc1nnc2n(c1=O)CCN2c1ccc(C)cc1
input: Put the compounds in ascending order of log kw, Cholester. Field: ranking. Enter the labels in the order requested.
output: Q, R, P

###

Assay: RP-HPLC retention on Cosmosil Cholester column, buffer pH 7.4-acetonitrile
Assay type: physicochemical
Settings: extrapolated to buffer pH 7.4 as mobile phase, 25 °C
Description: Retention parameters reported as the log k values were calculated by the expression:(1) logk=log(tR−t0)/t0 where tR and t0 are the retention times of the solute and a non-retained compound (citric acid), respectively. […] As mobile phases buffer-acetonitrile mixtures were used. […] With the ODS column acetonitrile concentration in the effluent, expressed as a volume fraction (φ, v/v), was changed in the range 0.3–0.6, with the constant step of 0.1. […] They were detected under UV light at 210 and 254 nm. […]
quantity_measured: log kw, Cholester

As a guide, the following entries are already answered.
So, `Cc1ccc(N2CCn3c2nnc(Cc2cccc(C)c2)c3=O)cc1` ? Its log kw, Cholester was 3.09

Field log kw, Cholester (entry `COc1ccc(N2CCn3c2nnc(-c2ccco2)c3=O)cc1` ) reads 1.53

In plain terms, `Cc1ccc(N2CCn3c2nnc(Cc2ccccc2Cl)c3=O)cc1` has a documented log kw, Cholester of 3.24

// `O=c1c(-c2ccco2)nnc2n1CCN2c1ccc(Cl)c(Cl)c1` : log kw, Cholester value = 2.92

In plain terms, `CCOC(=O)Cc1nnc2n(c1=O)CCN2c1ccc(Cl)c(Cl)c1` has a documented log kw, Cholester of 2.77

Reported log kw, Cholester ( `O=c1c(-c2ccccc2)nnc2n1CCN2c1ccc(Cl)c(Cl)c1` ) = 3.86

a: CCOc1ccc(N2CCn3c2nnc(Cc2ccccc2Cl)c3=O)cc1
b: CCOC(=O)Cc1nnc2n(c1=O)CCN2c1ccccc1
input: Returns: the argument ( a or b ) having the larger log kw, Cholester. In your reply, give the label of the chosen option.
output: a
(a: 3.21, b: 1.11)

From: paper PMC7037052
